The measured values listed here are drawn from patent US10308639B2.

- TGT: PI3Kβ (Homo sapiens, UniProt P42338)
- Construct: made in house
- Sequence (P42338 whole entry): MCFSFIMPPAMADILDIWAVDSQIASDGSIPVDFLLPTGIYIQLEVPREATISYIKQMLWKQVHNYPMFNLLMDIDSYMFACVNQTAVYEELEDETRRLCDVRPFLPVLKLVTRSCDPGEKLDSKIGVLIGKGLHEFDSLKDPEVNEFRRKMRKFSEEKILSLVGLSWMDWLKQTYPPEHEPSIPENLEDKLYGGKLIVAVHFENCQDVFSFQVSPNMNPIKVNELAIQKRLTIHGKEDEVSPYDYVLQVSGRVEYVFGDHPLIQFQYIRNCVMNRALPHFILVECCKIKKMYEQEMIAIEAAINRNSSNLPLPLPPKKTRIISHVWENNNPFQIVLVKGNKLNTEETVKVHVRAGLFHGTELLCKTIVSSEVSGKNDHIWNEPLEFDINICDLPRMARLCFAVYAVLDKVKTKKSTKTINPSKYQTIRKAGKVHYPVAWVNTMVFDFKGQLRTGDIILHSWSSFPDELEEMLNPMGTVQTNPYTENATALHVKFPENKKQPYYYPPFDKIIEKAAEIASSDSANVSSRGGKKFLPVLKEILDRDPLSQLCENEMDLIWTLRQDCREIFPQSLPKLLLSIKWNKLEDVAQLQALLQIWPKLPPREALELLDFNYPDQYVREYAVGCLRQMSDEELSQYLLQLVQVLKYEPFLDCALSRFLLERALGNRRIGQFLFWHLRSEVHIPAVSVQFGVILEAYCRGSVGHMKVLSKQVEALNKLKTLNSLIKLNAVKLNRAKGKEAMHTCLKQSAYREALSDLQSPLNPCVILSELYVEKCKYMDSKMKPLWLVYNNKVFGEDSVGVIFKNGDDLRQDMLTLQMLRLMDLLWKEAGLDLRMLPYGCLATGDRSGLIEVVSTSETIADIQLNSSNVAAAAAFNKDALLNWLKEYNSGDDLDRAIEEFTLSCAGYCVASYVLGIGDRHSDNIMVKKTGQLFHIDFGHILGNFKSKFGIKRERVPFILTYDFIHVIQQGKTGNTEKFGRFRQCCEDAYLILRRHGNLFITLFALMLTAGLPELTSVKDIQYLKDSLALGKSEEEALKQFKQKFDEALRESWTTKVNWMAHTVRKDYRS
- Sequence (P27986 whole entry partner): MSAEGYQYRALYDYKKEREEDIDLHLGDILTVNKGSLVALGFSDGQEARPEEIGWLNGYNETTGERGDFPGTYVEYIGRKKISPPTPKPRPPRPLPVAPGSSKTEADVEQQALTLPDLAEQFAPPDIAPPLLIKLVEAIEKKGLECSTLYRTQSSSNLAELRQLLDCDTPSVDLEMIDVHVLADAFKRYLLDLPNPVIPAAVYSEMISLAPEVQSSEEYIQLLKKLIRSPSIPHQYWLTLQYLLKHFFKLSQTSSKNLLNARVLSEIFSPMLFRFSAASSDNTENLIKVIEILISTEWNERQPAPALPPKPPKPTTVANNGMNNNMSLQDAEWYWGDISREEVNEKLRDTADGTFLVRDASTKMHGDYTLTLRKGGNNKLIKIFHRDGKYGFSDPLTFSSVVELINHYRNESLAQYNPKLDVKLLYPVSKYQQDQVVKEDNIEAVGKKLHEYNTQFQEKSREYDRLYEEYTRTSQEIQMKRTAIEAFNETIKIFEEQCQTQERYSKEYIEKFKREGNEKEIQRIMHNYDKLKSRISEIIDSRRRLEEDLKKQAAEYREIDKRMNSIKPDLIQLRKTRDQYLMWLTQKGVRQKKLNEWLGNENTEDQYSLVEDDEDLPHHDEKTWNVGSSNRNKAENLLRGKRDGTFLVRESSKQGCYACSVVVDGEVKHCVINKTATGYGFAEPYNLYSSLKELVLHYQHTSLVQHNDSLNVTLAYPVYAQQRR
- ASSAY NAME: TR-FRET enzymatic activity assay, PI3Kβ
- Assay type: biochemical
- PROTOCOL CONDITIONS: Table 2a; same assay
Binned IC50; ranges: Low = under 3 nM, Mid = from 3 nM up to 40 nM, High = 40 nM and over

Previously resolved entries follow.
>>> assigned_label("C[C@H](Nc1nc(N)nc(N)c1Cl)c1nc2c(C(F)(F)F)cccc2c(=O)n1-c1cc[nH]n1 [Compound 136]")
"Mid"
>>> assigned_label("C[C@H](Nc1nc(N)nc(N)c1C#N)c1nc2ccc(F)c(Cl)c2c(=O)n1-c1cc[nH]n1 [Compound 260]")
"Low"
>>> assigned_label("Cc1c[nH]nc1-n1c([C@@H](Nc2nc(N)nc(Cl)c2C#N)C2CC2)nc2cccc(Cl)c2c1=O [Compound 243]")
"High"

Which bin should I file Cc1ccc(Cl)c2nc([C@H](C)Nc3nc(N)nc(C(F)F)c3C#N)n(-c3cc[nH]n3)c(=O)c12 [Compound 224] under? Mid

Param item: CCC[C@H](Nc1nc(N)nc(N)c1C#N)c1nc2ccc(F)c(Cl)c2c(=O)n1-c1cc[nH]n1 [Compound 268] Mid

Param item: C[C@H](Nc1nc(N)nc(N)c1C#N)c1nc2cccc(C(F)F)c2c(=O)n1-c1cc[nH]n1 [Compound 211] Low

Param item: C[C@H](NC(=O)c1nc(Cl)c(N)nc1N)c1nc2c(F)ccc(Cl)c2c(=O)n1-c1cc[nH]n1 [Compound 277] High

Param item: Cc1c[nH]nc1-n1c([C@@H](Nc2nc(N)nc(C)c2C#N)C2CC2)nc2c(C#N)cccc2c1=O [Compound 203] Mid

Param item: N#Cc1c(N)nc(N)nc1N[C@H](c1nc2cccc(Cl)c2c(=O)n1-c1cc[nH]n1)C1CCC1 [Compound 128] Low

Param item: Cc1c[nH]nc1-n1c([C@@H](NC2=NC(N)=NC3=NN=C(Br)C32)C2CC2)nc2cccc(Cl)c2c1=O (stereo partly drawn) [Compound 242] High

Param item: C[C@H](Nc1nc(N)nc(N)c1Cl)c1nc2cc(F)cc(F)c2c(=O)n1-c1cc[nH]n1 [Compound 236] High

Param item: N#Cc1c(N[C@H](c2nc3cccc(C(F)F)c3c(=O)n2-c2cc[nH]n2)C2CC2)nc(N)nc1C(F)F [Compound 177] Mid

Param item: Cc1c[nH]nc1-n1c([C@@H](Nc2nc(N)nc(N)c2Cl)C2CC2)nc2c(C#N)cccc2c1=O [Compound 204] High

Param item: C[C@H](Nc1nc(N)nc(N)c1C#N)c1nc2ccccc2c(=O)n1-c1cc[nH]n1 [Compound 274] Low
